- TEST SUMMARY: Differential scanning calorimetry
- Format: physicochemical
- CONDITION PARAMETERS: DSC, phase transition, from integration of the thermograms
Please use y for Enthalpy under 10 kcal/mol and n for everything else, ties included.

SMILES REPR	CATEGORY
CCCCCCCCn1cc(CO[C@@H]2OC[C@@H](O)[C@H](O)[C@H]2O)nn1	y
CCCCCCCCCCCCn1cc(CO[C@@H]2OC[C@@H](O)[C@H](O)[C@H]2O)nn1	y
CCCCCCn1cc(CO[C@@H]2OC[C@@H](O)[C@H](O)[C@H]2O)nn1	y
O[C@@H]1[C@@H](O)[C@H](OCc2cn(CCC(F)(F)C(F)(F)C(F)(F)C(F)(F)C(F)(F)C(F)(F)F)nn2)OC[C@H]1O	n
CCCCCCCCCCn1cc(CO[C@@H]2OC[C@@H](O)[C@H](O)[C@H]2O)nn1	y
CCCCCCCCCCCCCCCCn1cc(CO[C@@H]2OC[C@@H](O)[C@H](O)[C@H]2O)nn1	n

---

CC50 at 16 h: recorded values
- TEST SUMMARY: MTS cytotoxicity assay in Jurkat cells
- Assay type: cell-based, human
- CONDITION PARAMETERS: human, Jurkat cells (acute leukemia T lymphocytes)

MOLECULE	CC50 at 16 h
CCCCCCCCCCCCCCn1cc(CO[C@@H]2OC[C@@H](O)[C@H](O)[C@H]2O)nn1 [Compound 5e]	> 1000 µM
CCCCCCCCCCCCCCCCn1cc(CO[C@@H]2OC[C@@H](O)[C@H](O)[C@H]2O)nn1 [Compound 5f]	> 1000 µM
O[C@@H]1[C@@H](O)[C@H](OCc2cn(CCC(F)(F)C(F)(F)C(F)(F)C(F)(F)C(F)(F)C(F)(F)F)nn2)OC[C@H]1O [Compound 5g]	> 1000 µM
CCCCCCn1cc(CO[C@@H]2OC[C@@H](O)[C@H](O)[C@H]2O)nn1 [Compound 5a]	> 1000 µM
